REPORTED PROPERTY: melting point

CCNC(=O)c1ccc(-c2ccc(-c3ccc(F)cc3)n2Cc2cccc(N)n2)cc1 [Example 61] ... 184 to 185 °C
Nc1cccc(Cn2c(-c3ccc(-c4cccnc4)cc3)ccc2-c2ccccc2Cl)n1 [Example 28] ... 163 to 166 °C
CCCOc1ccc(-c2ccc(-c3ccccc3)n2Cc2cccc(N)n2)cc1 [Example 56] ... 106 to 107 °C

We now examine a further compound.
Lab note: Nc1cccc(Cn2c(-c3ccccc3)ccc2-c2ccc(C(=O)NCC3CCCO3)cc2)n1 (stereo not shown) [Example 66] gave melting point of 98 to 99 °C
